Listing of entries alongside the reported S,S Stereoisomer %.
TEST: S,S isomer content by HPLC (area of active isomer to sum of both isomers)
Assay type: physicochemical
CONDITIONS_USED: Test in Mobile Minor unit; IN/OUT temperature differs per test
Protocol: The S-adenosyl methionine of the invention preferably has a water content below 2% by weight and an active enantiomer content exceeding 75% of the total SAMe. The enantiomer content is determined by the percentage of the area of active isomer to the sum of the area of both isomers in the HPLC analysis.

COMPOUND: C[S+](CC[C@H](N)C(=O)[O-])C[C@H]1O[C@@H](n2cnc3c(N)ncnc32)[C@H](O)[C@@H]1O.O=S(=O)(O)CCCCS(=O)(=O)O (single isomer, unassigned) [Example 3, SAMe 1,4-butanedisulphonate]
S,S Stereoisomer %: 75.65%

COMPOUND: C[S+](CC[C@H](N)C(=O)[O-])C[C@H]1O[C@@H](n2cnc3c(N)ncnc32)[C@H](O)[C@@H]1O.O=S(=O)(O)CCCCS(=O)(=O)O (single isomer, unassigned) [Example 5, SAMe 1,4-butanedisulphonate]
S,S Stereoisomer %: 76.63%

COMPOUND: C[S+](CC[C@H](N)C(=O)[O-])C[C@H]1O[C@@H](n2cnc3c(N)ncnc32)[C@H](O)[C@@H]1O.O=S(=O)(O)CCCCS(=O)(=O)O (single isomer, unassigned) [Example 4, SAMe 1,4-butanedisulphonate]
S,S Stereoisomer %: 72.60%

COMPOUND: C[S+](CC[C@H](N)C(=O)[O-])C[C@H]1O[C@@H](n2cnc3c(N)ncnc32)[C@H](O)[C@@H]1O.O=S(=O)(O)CCCCS(=O)(=O)O (single isomer, unassigned) [Example 7, SAMe 1,4-butanedisulphonate, reference compound]
S,S Stereoisomer %: 75.95%
